targetOfAssay: human VDR (Homo sapiens, UniProt P11473)
Construct: expressed in transfected cells; host or cells: COS cells, human VDR in pSG5
protocolSummary: Vitamin D receptor activation (VDR), transcription activation assay in COS cells
Assay type: cell-based
measurementParameters: vs calcitriol
quantity: TI shift (HTD/VDR of test compound divided by HTD/VDR of calcitriol)

In the examples that follow, each entry is paired with its recorded TI shift (HTD/VDR of test compound divided by HTD/VDR of calcitriol).
C[C@@H](CNC(=O)CC(C)(O)C(F)(F)F)[C@H]1CC[C@H]2/C(=C/C=C3C[C@@H](O)C[C@H](O)C3)CCC[C@]12C (mixture of isomers) = 15
C[C@H](CNC(=O)C[C@](C)(O)C(F)(F)F)[C@H]1CCC[C@H]2/C(=C/C=C3C[C@@H](O)C[C@H](O)C3)CCC[C@]12C = 132
C=C1/C(=C\C=C2/CCC[C@]3(C)[C@@H]([C@H](C)CNC(=O)CC(C)(O)C(F)(F)F)CC[C@@H]23)C[C@@H](O)C[C@@H]1O (mixture of isomers) = 33
C[C@H](CNC(=O)C(C)(C)O)[C@H]1CC[C@H]2/C(=C/C=C3C[C@@H](O)C[C@H](O)C3)CCC[C@]12C = 329
C[C@H](CNC(=O)CC(O)(C(F)(F)F)C(F)(F)F)[C@H]1CC[C@H]2/C(=C/C=C3C[C@@H](O)C[C@H](O)C3)CCC[C@]12C = 34
C[C@H](CNC(=O)CC(O)(C(F)(F)F)C(F)(F)F)[C@H]1CCC[C@H]2/C(=C/C=C3C[C@@H](O)C[C@H](O)C3)CCC[C@]12C = 24

Form field TI shift (HTD/VDR of test compound divided by HTD/VDR of calcitriol) for item C[C@H](CNC(=O)C[C@@](C)(O)C(F)(F)F)[C@H]1CC[C@H]2/C(=C/C=C3C[C@@H](O)C[C@H](O)C3)CCC[C@]12C on human VDR (Homo sapiens, UniProt P11473): 55

* * *

protocolSummary: Calcium liability (tolerance test in mice)
measurementParameters: mouse, in vivo, sc, daily s.c. for 4 consecutive days, dose without weight loss / with zero weight gain, read-out: HTD sc, mouse (highest tolerated subcutaneous dose)
quantity: MTD (µg/kg)
Give bare numbers, in µg/kg.

C[C@H](CNC(=O)CC(O)(C(F)(F)F)C(F)(F)F)[C@H]1CC[C@H]2/C(=C/C=C3C[C@@H](O)C[C@H](O)C3)CCC[C@]12C [A] = 3

# map each compound to its MTD
1. C=C1/C(=C/C=C2\CCC[C@]3(C)[C@@H]([C@H](C)CNC(=O)CC(C)(O)C(F)(F)F)CC[C@@H]23)C[C@@H](O)C[C@@H]1O (mixture of isomers) [I]
2. C[C@H](CNC(=O)CC(O)(C(F)(F)F)C(F)(F)F)[C@H]1CCC[C@H]2/C(=C/C=C3C[C@@H](O)C[C@H](O)C3)CCC[C@]12C [H]
3. C[C@H](CNC(=O)C[C@@](C)(O)C(F)(F)F)[C@H]1CCC[C@H]2/C(=C/C=C3C[C@@H](O)C[C@H](O)C3)CCC[C@]12C [F]
4. C[C@H](CNC(=O)C[C@](C)(O)C(F)(F)F)[C@H]1CCC[C@H]2/C(=C/C=C3C[C@@H](O)C[C@H](O)C3)CCC[C@]12C [G]
5. C[C@H](CNC(=O)C[C@@](C)(O)C(F)(F)F)[C@H]1CC[C@H]2/C(=C/C=C3C[C@@H](O)C[C@H](O)C3)CCC[C@]12C [compound J]
6. C[C@H](CNC(=O)C(C)(C)O)[C@H]1CC[C@H]2/C(=C/C=C3C[C@@H](O)C[C@H](O)C3)CCC[C@]12C [C]

Output:
1. 130
2. 2.3
3. 5
4. 4.5
5. 22
6. 400

* * *

targetOfAssay: human VDR (Homo sapiens)
Construct: expressed in transfected cells; host or cells: COS cells, human VDR in pSG5
Sequence (P11473 1-427): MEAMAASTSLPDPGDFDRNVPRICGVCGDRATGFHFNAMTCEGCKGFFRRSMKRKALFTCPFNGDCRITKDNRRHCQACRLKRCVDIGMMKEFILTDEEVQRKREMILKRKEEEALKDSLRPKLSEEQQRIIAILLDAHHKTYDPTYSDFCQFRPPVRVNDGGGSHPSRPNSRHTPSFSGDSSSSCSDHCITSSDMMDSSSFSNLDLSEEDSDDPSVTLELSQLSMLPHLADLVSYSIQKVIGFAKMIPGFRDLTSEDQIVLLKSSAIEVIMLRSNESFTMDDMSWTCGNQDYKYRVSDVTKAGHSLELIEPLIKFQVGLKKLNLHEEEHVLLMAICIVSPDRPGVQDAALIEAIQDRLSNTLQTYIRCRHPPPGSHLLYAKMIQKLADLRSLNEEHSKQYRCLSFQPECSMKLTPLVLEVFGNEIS
protocolSummary: Vitamin D receptor activation (VDR), transcription activation assay in COS cells
Assay type: cell-based
measurementParameters: ratio HTDsc (mouse, μg/kg) / VDR ED50 (nanomolar)
Excerpt: 2. Vitamin D receptor activation (VDR) In order to measure the activation of the vitamin D receptor (VDR) by vitamin D analogs in cells a transcription activation assay was used. COS cells were cotransfected with the human VDR (expressed in pSG5) and a reporter gene containing three response elements (VDRE3) from the rat osteocalcine gene, the thymidine kinase basal promoter, and the luciferase reporter gene, respectively. TI shift: shift in "therapeutic index", defined as the ratio HTD/VDR of […]
Assignment: determine reported HTD/VDR for the given molecules.

In the examples that follow, each entry is paired with its recorded HTD/VDR.
C[C@H](CNC(=O)CC(O)(C(F)(F)F)C(F)(F)F)[C@H]1CCC[C@H]2/C(=C/C=C3C[C@@H](O)C[C@H](O)C3)CCC[C@]12C = 4.6
C[C@H](CNC(=O)C[C@@](C)(O)C(F)(F)F)[C@H]1CC[C@H]2/C(=C/C=C3C[C@@H](O)C[C@H](O)C3)CCC[C@]12C = 10.5
C[C@H](CNC(=O)C(C)(C)O)[C@H]1CC[C@H]2/C(=C/C=C3C[C@@H](O)C[C@H](O)C3)CCC[C@]12C = 62.5
C=C1/C(=C/C=C2\CCC[C@]3(C)[C@@H]([C@H](C)CNC(=O)CC(C)(O)C(F)(F)F)CC[C@@H]23)C[C@@H](O)C[C@@H]1O (mixture of isomers) = 3.3
C[C@H](CNC(=O)CC(C)(O)C(F)(F)F)[C@H]1CC[C@H]2/C(=C/C=C3C[C@@H](O)C[C@H](O)C3)CCC[C@]12C (mixture of isomers) = 26.5
C=C1/C(=C\C=C2/CCC[C@]3(C)[C@@H]([C@H](C)CNC(=O)CC(C)(O)C(F)(F)F)CC[C@@H]23)C[C@@H](O)C[C@@H]1O (mixture of isomers) = 6.3
C[C@@H](CNC(=O)CC(C)(O)C(F)(F)F)[C@H]1CC[C@H]2/C(=C/C=C3C[C@@H](O)C[C@H](O)C3)CCC[C@]12C (mixture of isomers) = 2.9
C[C@H](CNC(=O)C[C@](C)(O)C(F)(F)F)[C@H]1CCC[C@H]2/C(=C/C=C3C[C@@H](O)C[C@H](O)C3)CCC[C@]12C = 25
C[C@H](CNC(=O)CC(O)(C(F)(F)F)C(F)(F)F)[C@H]1CC[C@H]2/C(=C/C=C3C[C@@H](O)C[C@H](O)C3)CCC[C@]12C = 6.4

Let us examine a further case.
molecule C[C@H](CNC(=O)C[C@@](C)(O)C(F)(F)F)[C@H]1CCC[C@H]2/C(=C/C=C3C[C@@H](O)C[C@H](O)C3)CCC[C@]12C , HTD/VDR observed: 8.3

* * *

protocolSummary: The mouse model: epidermal thickening (acanthosis) in hairless mice
measurementParameters: mouse, in vivo, po
quantity: MTD (µg/kg)
Give bare numbers, in µg/kg.

# map each compound to its MTD
1. C=C1/C(=C\C=C2/CCC[C@]3(C)[C@@H]([C@H](C)CCCC(C)(C)O)CC[C@@H]23)C[C@@H](O)C[C@@H]1O [Calcitriol, reference compound]
2. C[C@H](CNC(=O)C[C@@](C)(O)C(F)(F)F)[C@H]1CC[C@H]2/C(=C/C=C3C[C@@H](O)C[C@H](O)C3)CCC[C@]12C
3. C[C@H](CNC(=O)CC(C)(O)C(F)(F)F)[C@H]1CC[C@H]2/C(=C/C=C3C[C@@H](O)C[C@H](O)C3)CCC[C@]12C (mixture of isomers)

Output:
1
8
20

meta.source: patent US6043385A
